Where do these numbers come from? They come from ChEMBL document CHEMBL3585345.

Experiment: in vivo
Conditions: nude, mouse, brain/plasma, po, 30 mg/kg
# Lookup of reported Kp keyed by entry
RESULT_TYPE: Kp

> print(dat)
                                 mol.smiles  result.type  reading
1  COc1cc(Nc2ncc3c(n2)-c2ccc(Cl)cc2C(c2c(F)cccc2OC)=NC3)ccc1C(=O)[O-].[Na+]           Kp     0.03
2  COc1cccc(F)c1C1=NCc2cnc(Nc3ccc(C(=O)[O-])cc3)nc2-c2ccc(Cl)cc21.[Na+]           Kp     0.06
